- Tested on: SW620
- test-name: Inhibition of cancer cell growth as measured by cell number, SW620
- Assay type: cell-based, human
- cond: Homo sapiens, SW-620, 48 h, read-out: IC50 SW620, cell number, Sulforhodamine B, 48 hours exposure; Table 4
assay-readout: IC50 (µg/mL)
Write the value in µg/mL as a bare number.

Examples with answers:
# structure-notation, IC50, µg/mL
data = [
    ("COc1ccc(Nc2c(C#N)cnc3cc(OC)c(OC)cc23)cc1OC", 4.33),
    ("C=CC(=O)Nc1cc2c(Nc3cccc(Br)c3)c(C#N)cnc2cc1OC", 1.94),
]

Now examine the next entry.
IN: State the recorded IC50 for this entry: `N#Cc1cnc2ccc([N+](=O)[O-])cc2c1Nc1cccc(Br)c1`
OUT: 100

====

- system-name: recombinant human MEK 1 (MAPKK) and recombinant human ERK2 (MAPK)
- test-name: Mitogen Activated Protein Kinase (MAPK) assay, two component coupled MEK 1 / ERK2
- cond: separate entries for the same compound = evaluated more than one time
pIC50: −log10 of the molar value.
assay-readout: pIC50

Examples with answers:
# structure-notation, pIC50
measured = [
    ("N#Cc1cnc2ccc([N+](=O)[O-])cc2c1Nc1cccc(OC(F)(F)F)c1", "< 4.00"),
    ("COc1cc2c(Nc3cc(O)c(Cl)cc3F)c(C#N)cnc2cc1OCCCN(C)C", "> 6.00"),
    ("CCOc1cc2ncc(C#N)c(NCc3cccc(Br)c3)c2cc1OCC", "< 4.00"),
    ("COc1cc2ncc(C#N)c(Nc3ccc(CCO)cc3)c2cc1OC", "< 4.00"),
    ("COc1cc2c(Nc3ccc(O)cc3C)c(C#N)cnc2cc1OCCCN1CCOCC1", "< 4.00"),
]

IN: State the recorded pIC50 for this entry: `CC#CC(=O)Nc1ccc2ncc(C#N)c(Nc3cccc(Br)c3)c2c1`
OUT: < 4.00

IN: State the recorded pIC50 for this entry: `COCc1cc2ncc(C#N)c(Nc3cccc(Br)c3)c2cc1COC`
OUT: < 4.00

IN: State the recorded pIC50 for this entry: `COc1cccc(Nc2c(C#N)cnc3ccc(NC(=O)C#CCN4CCCCC4)cc23)c1`
OUT: < 4.00

IN: State the recorded pIC50 for this entry: `N#Cc1cnc2ccc([N+](=O)[O-])cc2c1Nc1ccc(Br)c(Br)c1`
OUT: < 4.00

IN: State the recorded pIC50 for this entry: `C=CC(=O)Nc1ccc2ncc(C#N)c(Nc3ccc(Sc4ccccc4)c(Cl)c3)c2c1`
OUT: 4.49

====

Listing: IC50 of selected molecules
- system-name: epidermal growth factor receptor kinase (Homo sapiens)
- Sequence (P00533 25-1210): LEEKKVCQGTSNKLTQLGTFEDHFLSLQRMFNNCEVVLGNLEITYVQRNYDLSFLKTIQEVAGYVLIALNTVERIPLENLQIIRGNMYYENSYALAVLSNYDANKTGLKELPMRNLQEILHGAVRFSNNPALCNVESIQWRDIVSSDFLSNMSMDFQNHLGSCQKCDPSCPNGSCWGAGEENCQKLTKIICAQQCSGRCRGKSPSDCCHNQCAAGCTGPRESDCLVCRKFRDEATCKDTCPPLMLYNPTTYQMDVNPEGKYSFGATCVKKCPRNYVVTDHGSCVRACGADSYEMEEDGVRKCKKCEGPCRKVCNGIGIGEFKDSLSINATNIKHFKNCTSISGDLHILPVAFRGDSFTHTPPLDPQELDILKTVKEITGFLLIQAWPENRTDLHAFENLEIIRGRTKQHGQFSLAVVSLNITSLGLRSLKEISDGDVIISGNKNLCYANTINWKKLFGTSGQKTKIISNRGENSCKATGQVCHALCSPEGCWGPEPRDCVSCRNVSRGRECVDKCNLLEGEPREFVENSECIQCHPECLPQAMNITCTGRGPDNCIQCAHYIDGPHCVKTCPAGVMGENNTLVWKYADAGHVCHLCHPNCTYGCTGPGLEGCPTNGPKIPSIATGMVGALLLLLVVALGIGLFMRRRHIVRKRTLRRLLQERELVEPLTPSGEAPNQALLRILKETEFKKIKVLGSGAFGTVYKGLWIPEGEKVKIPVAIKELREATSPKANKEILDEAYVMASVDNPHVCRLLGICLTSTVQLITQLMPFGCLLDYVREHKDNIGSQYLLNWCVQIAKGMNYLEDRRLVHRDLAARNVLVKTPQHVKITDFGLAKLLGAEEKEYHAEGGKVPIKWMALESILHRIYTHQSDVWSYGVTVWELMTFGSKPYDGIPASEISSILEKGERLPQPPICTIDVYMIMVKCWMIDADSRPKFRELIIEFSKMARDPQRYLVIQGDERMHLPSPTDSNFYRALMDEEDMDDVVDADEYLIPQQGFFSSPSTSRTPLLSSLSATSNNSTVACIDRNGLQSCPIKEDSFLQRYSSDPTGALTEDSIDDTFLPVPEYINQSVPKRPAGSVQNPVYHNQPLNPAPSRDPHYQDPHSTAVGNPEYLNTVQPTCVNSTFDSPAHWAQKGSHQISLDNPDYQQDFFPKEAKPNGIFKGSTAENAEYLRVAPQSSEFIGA
Write the value in nM as a bare number.

Examples with answers:
# structure-notation, display-unit, readout-number
records = [
    ("CCOc1cc2ncc(C#N)c(Nc3cccc(Br)c3)c2cc1OCC", "nM", 130),
    ("COc1cc2ncc(C#N)c(Nc3cccc(C#N)c3)c2cc1OC", "nM", 1670),
    ("N#Cc1cnc2ccc(NC(=O)/C=C\\Cl)cc2c1Nc1cccc(Br)c1", "nM", 10),
    ("C=CC(=O)Nc1ccc2ncc(C#N)c(Nc3cccc(Br)c3)c2c1", "nM", 0.021),
]

Now examine the next entry.
IN: State the recorded IC50 for this entry: `COc1cc2ncc(C#N)c(Nc3cccc(Cl)c3)c2cc1OC`
OUT: 200

====

Listing: IC50 of selected compounds
- system-name: Epithelial Cell Kinase (ECK) (Homo sapiens, UniProt P29317)
- Sequence (P29317 24-976, species assumed): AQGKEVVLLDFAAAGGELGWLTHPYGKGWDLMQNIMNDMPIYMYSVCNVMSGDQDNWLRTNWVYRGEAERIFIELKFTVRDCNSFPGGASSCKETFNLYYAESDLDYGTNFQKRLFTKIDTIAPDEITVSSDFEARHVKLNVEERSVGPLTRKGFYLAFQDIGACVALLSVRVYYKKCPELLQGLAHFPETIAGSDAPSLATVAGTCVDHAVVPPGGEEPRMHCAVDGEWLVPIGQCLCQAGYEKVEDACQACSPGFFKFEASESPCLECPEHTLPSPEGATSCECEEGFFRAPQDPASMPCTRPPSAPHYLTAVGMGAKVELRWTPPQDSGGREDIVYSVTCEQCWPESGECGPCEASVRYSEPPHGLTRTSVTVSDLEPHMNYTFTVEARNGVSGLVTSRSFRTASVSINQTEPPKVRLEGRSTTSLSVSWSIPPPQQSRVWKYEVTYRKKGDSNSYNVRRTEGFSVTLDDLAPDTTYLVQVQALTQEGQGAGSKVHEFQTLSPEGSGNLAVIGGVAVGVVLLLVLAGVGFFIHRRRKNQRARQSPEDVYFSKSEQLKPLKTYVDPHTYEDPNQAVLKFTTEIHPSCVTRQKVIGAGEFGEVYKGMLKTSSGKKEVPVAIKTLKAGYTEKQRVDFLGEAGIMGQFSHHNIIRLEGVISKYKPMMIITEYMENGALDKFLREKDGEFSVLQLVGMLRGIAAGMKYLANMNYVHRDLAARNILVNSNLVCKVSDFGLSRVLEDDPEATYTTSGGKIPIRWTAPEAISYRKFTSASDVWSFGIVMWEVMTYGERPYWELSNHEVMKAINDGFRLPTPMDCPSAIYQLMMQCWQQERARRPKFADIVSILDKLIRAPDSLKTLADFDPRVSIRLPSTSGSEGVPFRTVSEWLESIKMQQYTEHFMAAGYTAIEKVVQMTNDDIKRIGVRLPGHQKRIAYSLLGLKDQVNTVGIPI
Write the value in µM as a bare number.

Examples with answers:
# structure-notation, display-unit, IC50
data = [
    ("CN1CCN(CC#CC(=O)Nc2ccc3ncc(C#N)c(Nc4cccc(Br)c4)c3c2)CC1", "µM", 39.7),
    ("COc1ccc2c(Nc3cc(O)c(Cl)cc3F)c(C#N)cnc2c1", "µM", 0.0029),
]

Now examine the next entry.
IN: Can you look up IC50 on Epithelial Cell Kinase (ECK) (Homo sapiens, UniProt P29317) for `N#Cc1cnc2ccc(NC(=O)CCl)cc2c1Nc1cccc(Br)c1` ?
OUT: 24.1

====

Listing: pIC50 of selected compounds
- system-name: Epithelial Cell Kinase (ECK) (Homo sapiens, UniProt P29317)
Here pIC50 is given on a logarithmic scale as minus log10 of the concentration in mol/L.

# structure-notation, system-name, readout-number
rows = [
    ("COc1cc2c(Nc3cc(O)c(Cl)cc3F)c(C#N)cnc2cc1OCCCN(C)C", "Epithelial Cell Kinase (ECK) (Homo sapiens, UniProt P29317)", 6.35),
]

IN: Can you look up pIC50 on Epithelial Cell Kinase (ECK) (Homo sapiens, UniProt P29317) for `COc1cc2ncc(C#N)c(Nc3ccc(F)c(Cl)c3)c2cc1NC(=O)C=CCN(C)C` ?
OUT: 5.66

====

- system-name: recombinant human MEK 1 (MAPKK) and recombinant human ERK2 (MAPK)
- test-name: Mitogen Activated Protein Kinase (MAPK) assay, two component coupled MEK 1 / ERK2;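 note: MEK 1-activated ERK2 phosphorylates MBP or Myc peptide with 33P-ATP, filter capture and scintillation counting, inhibitor preincubated with ERK2 30 min at 0 °C, inhibition relative to uninhibited control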
- cond: separate entries for the same compound = evaluated more than one time
Listing: IC50 of selected compounds
Write the value in µM as a bare number.

Examples with answers:
# compound, display-unit, IC50
measured = [
    ("C=CC(=O)Nc1ccc2ncc(C#N)c(Nc3cccc(I)c3)c2c1", "µM", 60),
    ("COc1ccc(OC)c2c(Nc3cccc(Br)c3)c(C#N)cnc12", "µM", 10),
    ("CCOc1cc2ncc(C#N)c(NCc3ccc(Cl)c(Cl)c3)c2cc1OCC", "µM", 3),
    ("CCN(CC)CC=CC(=O)Nc1cc2c(Nc3ccc(F)c(Br)c3)c(C#N)cnc2cc1OC", "µM", 9),
    ("CCOc1cc2ncc(C#N)c(Nc3ccc(F)cc3)c2cc1OCC", "µM", 55),
]

IN: State the recorded IC50 for this entry: `CC#CC(=O)Nc1ccc2ncc(C#N)c(Nc3cccc(Cl)c3)c2c1`
OUT: 40

IN: State the recorded IC50 for this entry: `CCN(CC)CC#CC(=O)Nc1ccc2ncc(C#N)c(Nc3ccc(F)c(Cl)c3)c2c1`
OUT: 50

IN: State the recorded IC50 for this entry: COc1cccc(Nc2c(C#N)cnc3ccc(N(C)C)cc23)c1.Cl [Example 396, Hydrochloride]
OUT: 50

IN: State the recorded IC50 for this entry: `CC#CC(=O)Nc1ccc2ncc(C#N)c(Nc3cccc(OC)c3)c2c1`
OUT: 35

IN: State the recorded IC50 for this entry: `CN(C)CC#CC(=O)Nc1ccc2ncc(C#N)c(Nc3ccc(F)c(Cl)c3)c2c1`
OUT: 50

IN: State the recorded IC50 for this entry: `N#Cc1cnc2ccc(NC(=O)/C=C/Cl)cc2c1Nc1cccc(Br)c1`
OUT: 35

IN: State the recorded IC50 for this entry: `COc1cc2ncc(C#N)c(Nc3ccc(O)cc3O)c2cc1OC`
OUT: 20

IN: State the recorded IC50 for this entry: `COc1cccc(Nc2c(C#N)cnc3ccc(N)cc23)c1`
OUT: 35

IN: State the recorded IC50 for this entry: `CN(C)CC=CC(=O)Nc1ccc2ncc(C#N)c(Nc3ccc(F)c(Br)c3)c2c1`
OUT: 90

====

- Tested on: SW620
- test-name: Inhibition of cancer cell growth as measured by cell number, SW620;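 note: SW620 was included as a cell line with little or no EGFR or HER2/neu expression, in contrast to receptor-overexpressing lines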
- Format: cell-based, human
- cond: Homo sapiens, SW-620, 48 h, read-out: IC50 SW620
Listing: IC50 of selected compounds

Examples with answers:
# compound, IC50
records = [
    ("N#Cc1cnc2ccc([N+](=O)[O-])cc2c1Nc1cccc(C(F)(F)F)c1 [Example 23]", "> 100 µg/mL"),
    ("COc1cc2ncc(C#N)c(Nc3cccc(Br)c3)c2cc1NC(=O)C=CCN1CCOCC1 [Example 200]", "> 5 µg/mL"),
]

Now examine the next entry.
IN: State the recorded IC50 for this entry: N#Cc1cnc2ccc(NC(=O)C=CCN3CCOCC3)cc2c1Nc1ccc(F)c(Br)c1 [Example 174]
OUT: > 5 µg/mL

====

- System: MCF7
- test-name: Inhibition of cancer cell growth as measured by cell number, MCF7;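 note: MCF7 was included as a line with little or no EGFR or HER2/neu expression, in contrast to the receptor-overexpressing lines of the panel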
- Format: cell-based, human
- cond: Homo sapiens, MCF7, 48 h, read-out: IC50 MCF7, cell number, Sulforhodamine B, 48 hours exposure; Table 5
assay-readout: IC50
// return the numeric value with its unit appended

# structure-notation, result
records = [
    ("N#Cc1cnc2ccc([N+](=O)[O-])cc2c1Nc1cccc(Br)c1", "65 µg/mL"),
    ("CCOc1cc2ncc(C#N)c(Nc3cccc(Br)c3)c2cc1OCC", "0.072 µg/mL"),
    ("COc1cc2ncc(C#N)c(Oc3cccc(Br)c3)c2cc1OC", "57.5 µg/mL"),
]

IN: State the recorded IC50 for this entry: `COc1cc2ncc(C#N)c(Nc3cccc(C#N)c3)c2cc1OC`
OUT: 57.8 µg/mL
